assay: Aqueous solubility of anhydrous Crystalline Form I; format: physicochemical; conditions: water (aqueous); anhydrous Crystalline Form I of acetate salt, at 25° C.
readout.kind: solubility

[[record]]
compound_smiles = "N=C(N)c1ccc(CNC(=O)c2cnn(Cc3ccccc3)c2)cc1"
readout_kind = "solubility"
reported_measurement = "~8300 µg/mL"

